Molecular target: Recombinant human his-tagged IGF R extracellular domain protein (human) (UniProt P08069)
Assay: SPR, Ab captured via anti-huIgG Fc, dissociation at pH 6
Recorded Metric: kon (M⁻¹ s⁻¹)
Response body: numeric value in M⁻¹ s⁻¹, unit text excluded.

VRDN-02016 (antibody, V domains shown) VH: QVQLQESGPGLVKPSETLSLTCTVSGYSITGGYLWNWIRQPPGKGLEWIGYISYHGTNNYKPSLKDRVTISRDTSKNQFSLKLSSVTAADTAVYYCARYGRVFFDYWGQGTLVTVSS VL: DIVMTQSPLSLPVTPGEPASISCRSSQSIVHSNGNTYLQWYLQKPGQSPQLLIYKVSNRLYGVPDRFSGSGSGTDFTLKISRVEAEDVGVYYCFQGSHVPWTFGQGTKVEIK ... 84300

Hello, please tell me recorded kon for this one: VRDN-02019 (antibody, V domains shown) VH: QVQLQESGPGLVKPSETLSLTCTVSGYSITGGYLWNWIRQPPGKGLEWIGYISYDGTHNYKPSLKDRVTISRDTSKNQFSLKLSSVTAADTAVYYCARYGRVFFDYWGQGTLVTVSS VL: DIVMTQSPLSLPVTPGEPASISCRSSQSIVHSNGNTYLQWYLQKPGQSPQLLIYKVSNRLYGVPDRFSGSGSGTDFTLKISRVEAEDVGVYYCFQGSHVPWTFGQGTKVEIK
85800

Source listed as patent US20240360227A1.
